MEASUREMENT_TARGET: T1, recombinant human HER2 extracellular domain protein (human, UniProt P04626 23-652)
T1 construct: range 23-652; Range is printed for the immunogen/panning protein; also called ErbB2; recombinant HER2 protein
PROCEDURE_DETAILS: BLI, Protein A capture
READOUT_TYPE: pKd
Remember the convention: pKd equals -log10 of concentration in molar.

{"BINDER": "Hu2117HK-Mu46 (Fc fusion, scFv-hIgG1 Fc; not shown: human IgG1 Fc) scFv: EVQLVESGGGLVQPGGSLRLSCAASGFTYSSYGMSWVRQAPGKGLEWVASISGGGSYTKYPDSVKGRFTISRDNSKNTLYLQMNSLRAEDTAVYYCARDYNGFFDVWGQGTLVTVSSGGGGSGGGGSGGGGSDIQMTQSPSSLSASVGDRVTITCRSSQSLVHSNGNTYLHWYQQKPGKAPKLLIYKVSNRFSGVPSRFSGSGSGTDFTLTISSLQPEDFATYFCSQSTHVPYTFGQGTKVEIK", "pKd": 7.99}
{"BINDER": "Hu2117HK-Mu05 (Fc fusion, scFv-hIgG1 Fc; not shown: human IgG1 Fc) scFv: EVQLVESGGGLVQPGGSLRLSCAASGFTFSSYGMSWVRQAPGKGLEWVASISGGGSYTKYPDSVKGRFTISRDNSKNTLYLQMNSLRAEDTAVYYCARDYAGFFDVWGQGTLVTVSSGGGGSGGGGSGGGGSDIQMTQSPSSLSASVGDRVTITCRSSQSLVHSNGNTYLHWYQQKPGKAPKLLIYKVSNRFSGVPSRFSGSGSGTDFTLTISSLQPEDFATYFCSQSTHVPYTFGQGTKVEIK", "pKd": 8.17}
{"BINDER": "Hu2117HK-Mu07 (Fc fusion, name in Kabat numbering, scFv-hIgG1 Fc; not shown: human IgG1 Fc) scFv: EVQLVESGGGLVQPGGSLRLSCAASGFTYSSYGMSWVRQAPGKGLEWVASISGGGSYTYYPDSVKGRFTISRDNSKNTLYLQMNSLRAEDTAVYYCARDYAGFFDVWGQGTLVTVSSGGGGSGGGGSGGGGSDIQMTQSPSSLSASVGDRVTITCRSSQSLVHSNGNTYLHWYQQKPGKAPKLLIYKVSNRFSGVPSRFSGSGSGTDFTLTISSLQPEDFATYFCSQSTHVPYTFGQGTKVEIK", "pKd": 7.93}

Qu. Request the reported pKd associated with Hu2117HK-Mu08 (Fc fusion, scFv-hIgG1 Fc; not shown: human IgG1 Fc) scFv: EVQLVESGGGLVQPGGSLRLSCAASGFTYSSYGMSWVRQAPGKGLEWVASISGGGSYTKYADSVKGRFTISRDNSKNTLYLQMNSLRAEDTAVYYCARDYAGFFDVWGQGTLVTVSSGGGGSGGGGSGGGGSDIQMTQSPSSLSASVGDRVTITCRSSQSLVHSNGNTYLHWYQQKPGKAPKLLIYKVSNRFSGVPSRFSGSGSGTDFTLTISSLQPEDFATYFCSQSTHVPYTFGQGTKVEIK
Ans. 8.18

Qu. Same question, Hu2117HK-Mu09 (Fc fusion, scFv-hIgG1 Fc; not shown: human IgG1 Fc) scFv: EVQLVESGGGLVQPGGSLRLSCAASGFTYSSYGMSWVRQAPGKGLEWVASISGGGSYTKYGDSVKGRFTISRDNSKNTLYLQMNSLRAEDTAVYYCARDYAGFFDVWGQGTLVTVSSGGGGSGGGGSGGGGSDIQMTQSPSSLSASVGDRVTITCRSSQSLVHSNGNTYLHWYQQKPGKAPKLLIYKVSNRFSGVPSRFSGSGSGTDFTLTISSLQPEDFATYFCSQSTHVPYTFGQGTKVEIK this time
Ans. 8.20

Just for reference, patent EP4725969A1 is where these values come from.
